The values you see were collected from patent EP0188781A1.

- Tested on: Escherichia coli GN206
- method-description: Minimum inhibitory concentration (MIC) in vitro, antibacterial spectrum
- Type: cell-based
assay-endpoint: Minimum inhibitory concentration (MIC)
Give bare numbers.

See these solved cases before continuing.
molecule=CCO/N=C(\C(=O)N[C@@H]1C(=O)N2C(C(=O)O)=C(CSc3nc(=O)c(O)nn3C)CO[C@H]12)c1csc(N)n1 assay_endpoint="Minimum inhibitory concentration (MIC)" observed_result=1.56
molecule="CCN1CCN(C(=O)NC(C(=O)N[C@@H]2C(=O)N3C(C(=O)O)=C(CSc4nc(=O)c(O)nn4C)[C@H](C)O[C@H]23)c2csc(N)n2)C(=O)C1=O (single isomer, unassigned)" assay_endpoint="Minimum inhibitory concentration (MIC)" observed_result=1.56

Now take the following molecule into account.
Query block: Tell me measured Minimum inhibitory concentration (MIC) for CCN1CCN(C(=O)NC(C(=O)N[C@@H]2C(=O)N3C(C(=O)O)=C(CSc4nc(=O)c(O)nn4C)CO[C@H]23)c2csc(N)n2)C(=O)C1=O (single isomer, unassigned) please.
Result block: 1.56

###

- method-description: Concentration in serum after subcutaneous administration to mice, bioassay with Escherichia coli
- Format: in vivo
- reported-conditions: mouse, sc, 25 mg/kg subcutaneously, 1/12 hour
Kindly supply the reported concentration at 5 min values for the records listed here.
Give bare numbers, in ng/mL.

See these solved cases before continuing.
compound="CCN1CCN(C(=O)NC(C(=O)N[C@@H]2C(=O)N3C(C(=O)O)=C(CSc4nc(=O)c(O)nn4C)CO[C@H]23)c2csc(N)n2)C(=O)C1=O (single isomer, unassigned) [Compound No. 7]" assay_endpoint="concentration at 5 min" unit_of_measurement=ng/mL observed_result=25000
compound="CCN1CCN(C(=O)NC(C(=O)N[C@@H]2C(=O)N3C(C(=O)O)=C(CSc4nc(=O)c(O)nn4C)[C@H](C)O[C@H]23)c2csc(N)n2)C(=O)C1=O (single isomer, unassigned) [Compound No. 5]" assay_endpoint="concentration at 5 min" unit_of_measurement=ng/mL observed_result=24000

Now take the following compound into account.
Query block: Tell me measured concentration at 5 min for CO/N=C(\C(=O)N[C@@H]1C(=O)N2C(C(=O)O)=C(CSc3nc(=O)c(O)nn3C)[C@H](C)O[C@H]12)c1csc(N)n1 [Compound No. 1] please.
Result block: 27000

###

- System: Staphylococcus aureus Smith
- method-description: Minimum inhibitory concentration (MIC) in vitro, antibacterial spectrum
- Type: cell-based
assay-endpoint: Minimum inhibitory concentration (MIC)
Answers are plain numbers.

molecule="CCN1CCN(C(=O)NC(C(=O)N[C@@H]2C(=O)N3C(C(=O)O)=C(CSc4nc(=O)c(O)nn4C)CO[C@H]23)c2csc(N)n2)C(=O)C1=O (single isomer, unassigned)" assay_endpoint="Minimum inhibitory concentration (MIC)" observed_result=1.56
molecule="CCN1CCN(C(=O)NC(C(=O)N[C@@H]2C(=O)N3C(C(=O)O)=C(CSc4nc(=O)c(O)nn4C)[C@H](C)O[C@H]23)c2csc(N)n2)C(=O)C1=O (single isomer, unassigned)" assay_endpoint="Minimum inhibitory concentration (MIC)" observed_result=3.13
molecule="C[C@@H]1O[C@@H]2[C@H](NC(=O)C(NC=O)c3csc(N)n3)C(=O)N2C(C(=O)O)=C1CSc1nc(=O)c(O)nn1C (stereo partly shown)" assay_endpoint="Minimum inhibitory concentration (MIC)" observed_result=1.56

Query block: Provide Staphylococcus aureus Smith Minimum inhibitory concentration (MIC) reading for CO/N=C(\C(=O)N[C@@H]1C(=O)N2C(C(=O)O)=C(CSc3nc(=O)c(=O)[nH]n3C)CS[C@H]12)c1csc(N)n1 [Ceftriaxone, reference compound] .
Result block: 3.13
